# Assay Name: Human HepG2 cell viability assay in 384 well format
# Assay type: toxicity, cell-based
# Parameters: dose 125 nL, time 70.5 hour; concentration not given beside the values
# Cond: HepG2 cells, read-out: Inhibition
Metric: cytotoxicity at 70.5 h (%)

                                    molecule  unit_spec  observed
 0  Cc1noc(CCCNC(=O)CNC(=O)c2cc3ccccc3[nH]2)n1          %     -5.29
 1       COc1ccc(CCC(=O)N(C(C)C)C2CCOCC2)cc1          %     -6.93
 2    CN(C)C(=O)NCc1ncn2c1CN(S(C)(=O)=O)CCC2          %     -4.56
 3  O=C(NCC1(O)CCCCC1)c1coc(COc2cccc(F)c2)n1          %      1.09
 4         CCc1ncnc2c1CCN(C(=O)c1ccncc1F)CC2          %     -6.52
 5  O=C(Nc1ccc(-c2csnn2)cc1)N1CCN2CCCCC2C1 (configuration not stated)          %      5.22
 6  O=C(c1ccc[nH]1)N1CCC2(CC1)CC(Oc1cccnc1)CO2 (configuration not stated)          %        25
 7     CCn1nc(C)c2c1cnn2CCNS(=O)(=O)c1ccccc1          %     -6.47
 8   O=C(NCCCN1CCOCC1)c1ccn(COc2ccc(F)cc2)n1          %     -6.88
 9  COc1ccccc1CNC(=O)C(C)N1CC(n2cc(C)cn2)C1 (configuration not stated)          %     -10.8
10                  Cc1nnc(NCc2ccc(Cl)cc2)o1          %     -6.23
11  CCC(CNC(=O)c1nc(=O)[nH][nH]1)Oc1cccc(C(F)(F)F)c1 (configuration not stated)          %      -3.8

###

# Assay Name: Human HepG2 cell viability assay in 384 well format
# Assay type: toxicity, cell-based
# Set-up: dose 125 nL, time 70.5 hour; concentration not given beside the values
# Cond: HepG2 cells, read-out: Inhibition
Entries and their cytotoxicity at 70.5 h values follow.
Metric: cytotoxicity at 70.5 h (%)

In [3]: df
Out[3]:
                                   compound                  metric  unit_spec  observed
0  O=C(N[C@]12CC1CN(C(=O)c1ccco1)C2)c1cccc(F)c1 (stereo partly specified)  cytotoxicity at 70.5 h          %      13.8
1        CCN(CC)CCn1cc(NC(=O)c2ccccc2OC)cn1  cytotoxicity at 70.5 h          %     -12.2
2  CN(C)C(=O)N1Cc2ccccc2C2(CCN(C3CCOCC3)CC2)C1  cytotoxicity at 70.5 h          %     -10.7
3  Cn1ccnc1CN1CCN(Cc2ccccc2)[C@@H]2CS(=O)(=O)C[C@@H]21  cytotoxicity at 70.5 h          %     -9.92
4         CCNc1ncc(C(=O)NCCc2csc(CSC)n2)cn1  cytotoxicity at 70.5 h          %     -4.44
5  CNc1cc(C2CN(C(=O)c3ccccc3)CCO2)nc(C)n1 (stereo unspecified)  cytotoxicity at 70.5 h          %     -5.28
